Source: paper PMC7802229

test: Cytotoxicity assay (MTT); format: cell-based; conditions: human, Huh7it-1 cells, mean ± SD of triplicate
I'd appreciate it if you could supply CC50 at 46 h values for the items below.
The response must be a number in µg/mL with no trailing unit.

query: # query: CC50 at 46 h of entry `COc1c2c(c3c(c1C(C)=O)OC(C)(C)C=C3)OC(C)(C)C=C2`
result: 63

query: I have this molecule here, `COc1cc2c(c(OC)c1C(C)=O)C=CC(C)(C)O2` , and I need its recorded CC50 at 46 h.
result: 310

query: Please give the measured CC50 at 46 h for this molecule: `COc1cc2oc(=O)ccc2c2c1C=CC(C)(C)O2`
result: 93

query: Could you tell me which CC50 at 46 h is on file for `Cn1c(=O)c2c(c3ccccc31)OC(C)(C)C=C2` ?
result: 97
